// data source = ChEMBL document CHEMBL4229545

- TEST SUMMARY: Half life in rat plasma
- Format: ADME, cell-free
TEST READOUT: half-life

Lookup: Name the reported half-life value associated with the molecule "CC1=CC[C@H]2[C@H](C1)c1c(O)cc(/C(C)=N/OCCCC#N)cc1OC2(C)C"
Found: > 1 h

====

- TESTED TARGET: Cannabinoid receptor 2 (Homo sapiens)
- Sequence (P34972 whole entry): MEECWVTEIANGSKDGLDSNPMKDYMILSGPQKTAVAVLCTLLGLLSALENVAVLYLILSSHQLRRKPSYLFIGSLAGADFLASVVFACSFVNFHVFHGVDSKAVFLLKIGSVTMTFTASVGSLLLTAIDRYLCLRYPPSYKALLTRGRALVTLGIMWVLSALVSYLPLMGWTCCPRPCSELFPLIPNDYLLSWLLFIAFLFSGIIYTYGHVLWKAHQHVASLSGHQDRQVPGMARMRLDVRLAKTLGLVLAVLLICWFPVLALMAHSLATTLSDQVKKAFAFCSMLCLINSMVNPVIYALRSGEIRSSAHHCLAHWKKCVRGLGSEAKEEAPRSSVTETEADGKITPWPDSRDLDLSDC
- TEST SUMMARY: Displacement of [3H]CP-55,940 from recombinant human Cb2 receptor expressed in HEK293 cells
- Assay type: cell-based
TEST READOUT: Ki (nM)
Numeric only. Scale: nM

// solved cases for Ki follow
CC1=CC[C@H]2[C@H](C1)c1c(O)cc(/C(C)=N/OCCN3CCCCC3)cc1OC2(C)C	2.5
CCCCO/N=C(\C)c1cc(O)c2c(c1)OC(C)(C)[C@H]1CC=C(C)C[C@H]21	16.9
CCCCCCC(C)(C)c1cc(O)c2c(c1)OC(C)(C)[C@H]1CC=C(C)C[C@H]21	9
CC1=CC[C@H]2[C@H](C1)c1c(O)cc(/C(C)=N/OCCCC(F)(F)F)cc1OC2(C)C	3
CC1=CC[C@H]2[C@H](C1)c1c(O)cc(/C(C)=N\OCCCC#N)cc1OC2(C)C	0.4

Lookup: Name the reported Ki value associated with the molecule CCCC(C)O/N=C(\C)c1cc(O)c2c(c1)OC(C)(C)[C@H]1CC=C(C)C[C@H]21 (mixture of isomers)
Found: 24

Lookup: Name the reported Ki value associated with the molecule "CC1=CC[C@H]2[C@H](C1)c1c(O)cc(/C(C)=N/OCCCC#N)cc1OC2(C)C"
Found: 1.3

Lookup: Name the reported Ki value associated with the molecule CCCC(C)O/N=C(/C)c1cc(O)c2c(c1)OC(C)(C)[C@H]1CC=C(C)C[C@H]21 (mixture of isomers)
Found: 6.1

====

- TEST SUMMARY: Half life in human liver microsomes
- Type: ADME, microsome
TEST READOUT: half-life (min)
Numeric only. Scale: min

Lookup: Name the reported half-life value associated with the compound "CC1=CC[C@H]2[C@H](C1)c1c(O)cc(/C(C)=N/OCCCC#N)cc1OC2(C)C"
Found: 9

====

- TESTED TARGET: Cannabinoid receptor 1 (Rattus norvegicus, UniProt P20272)
- Sequence (P20272 whole entry): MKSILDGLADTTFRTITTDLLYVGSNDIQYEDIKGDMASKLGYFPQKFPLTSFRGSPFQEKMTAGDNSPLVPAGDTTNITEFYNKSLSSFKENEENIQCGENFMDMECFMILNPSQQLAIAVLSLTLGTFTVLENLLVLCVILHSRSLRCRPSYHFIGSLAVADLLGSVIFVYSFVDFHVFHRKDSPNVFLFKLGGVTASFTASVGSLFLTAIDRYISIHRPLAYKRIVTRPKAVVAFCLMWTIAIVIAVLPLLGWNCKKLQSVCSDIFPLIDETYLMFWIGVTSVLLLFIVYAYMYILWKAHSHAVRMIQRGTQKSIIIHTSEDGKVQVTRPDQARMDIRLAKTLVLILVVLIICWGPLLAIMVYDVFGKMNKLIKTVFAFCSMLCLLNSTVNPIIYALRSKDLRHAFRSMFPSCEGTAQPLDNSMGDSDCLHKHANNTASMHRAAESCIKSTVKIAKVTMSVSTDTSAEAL
Decision: Ki beneath 3 nM gives 1; Ki meeting or exceeding 3 nM gives -1.

Worked examples, 8 compounds total:
CC1=CC[C@H]2[C@H](C1)c1c(O)cc(/C(C)=N/OCCCCF)cc1OC2(C)C	-1
CC1=CC[C@H]2[C@H](C1)c1c(O)cc(/C(C)=N/OCCCn3ccnc3)cc1OC2(C)C	1
CC1=CC[C@H]2[C@H](C1)c1c(O)cc(/C(C)=N\OCCCc3ccccc3)cc1OC2(C)C	-1
CC1=CC[C@H]2[C@H](C1)c1c(O)cc(/C(C)=N/OCCN3CCOCC3)cc1OC2(C)C	-1
CC1=CC[C@H]2[C@H](C1)c1c(O)cc(/C(C)=N\OCCCC#N)cc1OC2(C)C	1
CCO/N=C(\C)c1cc(O)c2c(c1)OC(C)(C)[C@H]1CC=C(C)C[C@H]21	-1
CC1=CC[C@H]2[C@H](C1)c1c(O)cc(/C(C)=N/OCCN3CCCCC3)cc1OC2(C)C	-1
CC1=CC[C@H]2[C@H](C1)c1c(O)cc(/C(C)=N/OCCN3CCCC3)cc1OC2(C)C	-1

Could you now consider this next compound?
Lookup: In the record for CCCC(C)O/N=C(/C)c1cc(O)c2c(c1)OC(C)(C)[C@H]1CC=C(C)C[C@H]21 (mixture of isomers) , is Ki less than 3 nM?
Found: 1
